Can you tell me EC50 for the items I'm about to list?
# Tested on: MDA-MB-231
# procedure_details: Cytotoxicity against human MDA-MB-231 cells lacking ER
# Assay type: functional
# experimental_setup: read-out: ED50 (the source's name)
Give the quantity in µg/mL, number only.

query: May I ask what EC50 has been recorded for CC/C(=C(\c1ccccc1)c1ccc(OCCN(C)C)cc1)c1ccccc1 [TAMOXIFEN] ?
result: 8.5

query: Sample `CCc1cccc2c1ccc1c3occ(C)c3c(=O)oc21` — what was its EC50?
result: 13.5

query: Item under review: `Cc1coc2c1c(=O)oc1c3ccccc3ccc21` . Reported EC50?
result: 10.3

query: Param item = `Cc1cccc2c1ccc1c3occ(C)c3c(=O)oc21` ; retrieve measured EC50.
result: 10

query: Consider the compound shown here: `O=c1oc2c3ccccc3ccc2c2occc12` What is its recorded EC50?
result: 10.5

----------
# Tested on: SW-620
# procedure_details: Cytotoxicity against human SW620 cells
# Assay type: functional
# experimental_setup: read-out: ED50 (the source's name)
readout: EC50

query: Would you mind telling me what EC50 value was observed for `COc1cc2c3occc3c(=O)oc2c2ccccc12` ?
result: 4 µg/mL

query: So what does the record say about EC50 for CC/C(=C(\c1ccccc1)c1ccc(OCCN(C)C)cc1)c1ccccc1 [TAMOXIFEN] ?
result: 4 µg/mL

query: Which EC50 value belongs to `COc1cc2c3occ(C)c3c(=O)oc2c2ccccc12` ?
result: 9 µg/mL

query: Recorded EC50 of `Cc1cccc2c1ccc1c3occc3c(=O)oc21` , please.
result: > 10 µg/mL

query: GET /values?readout=EC50&item= `Cc1coc2c1c(=O)oc1c3ccccc3c(Cl)cc21`
result: > 10 µg/mL

query: Param item = `O=c1oc2c3ccccc3c(Cl)cc2c2occc12` ; retrieve measured EC50.
result: > 10 µg/mL

query: Please report the recorded EC50 for `Cc1cccc2c1ccc1c3occ(C)c3c(=O)oc21` .
result: > 10 µg/mL

query: Which EC50 value belongs to `CCc1cccc2c1ccc1c3occ(C)c3c(=O)oc21` ?
result: > 10 µg/mL
